- target system: FGFR1 (UniProt P11362)
- Sequence (P11362 whole entry, looked up): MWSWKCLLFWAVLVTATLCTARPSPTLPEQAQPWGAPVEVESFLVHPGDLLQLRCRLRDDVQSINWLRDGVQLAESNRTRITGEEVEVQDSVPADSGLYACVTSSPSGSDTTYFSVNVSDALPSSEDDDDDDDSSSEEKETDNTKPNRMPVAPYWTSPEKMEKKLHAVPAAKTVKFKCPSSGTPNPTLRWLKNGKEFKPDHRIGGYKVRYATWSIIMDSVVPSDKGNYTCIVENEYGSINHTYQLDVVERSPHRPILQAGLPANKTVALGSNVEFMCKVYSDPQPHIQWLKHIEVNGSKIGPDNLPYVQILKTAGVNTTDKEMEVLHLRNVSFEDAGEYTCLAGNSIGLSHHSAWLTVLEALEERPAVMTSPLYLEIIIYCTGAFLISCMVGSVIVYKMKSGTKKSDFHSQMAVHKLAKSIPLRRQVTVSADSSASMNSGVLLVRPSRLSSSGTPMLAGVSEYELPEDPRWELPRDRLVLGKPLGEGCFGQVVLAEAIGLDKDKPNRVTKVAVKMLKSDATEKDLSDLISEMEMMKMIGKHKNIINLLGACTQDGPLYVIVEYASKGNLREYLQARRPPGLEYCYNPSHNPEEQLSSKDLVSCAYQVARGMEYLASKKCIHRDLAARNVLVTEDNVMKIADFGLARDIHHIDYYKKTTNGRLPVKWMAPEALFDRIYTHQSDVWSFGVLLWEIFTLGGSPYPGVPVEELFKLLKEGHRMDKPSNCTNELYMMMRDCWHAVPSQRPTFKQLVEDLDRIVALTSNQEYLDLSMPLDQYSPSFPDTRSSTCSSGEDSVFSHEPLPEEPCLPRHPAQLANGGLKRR
- method description: phosphorylation enrichment, bacterial display (enrichment ratio); higher = better substrate or ligand; peptides without Tyr show the background;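 further: 11-residue human phosphosite peptides and single-mutation variants displayed on the E. coli surface, counted by deep sequencing, each peptide's frequency after selection divided by its frequency in the unselected input library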;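 further: frequency after pTyr selection over input frequency; kinase dosed for 20-30% of maximal phosphorylation in three min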
Each entry gets 0 if its phosphorylation enrichment stays under 0.7, and 1 if its phosphorylation enrichment is 0.7 or above.

- primary sequence: "WFKKFYDANYD [MAPRE2_Y158]"
  target system: "FGFR1 (UniProt P11362)"
  assigned class: 0
- primary sequence: "RSHLSYDVTPE [IQGAP3_Y1098_P1097S]"
  target system: "FGFR1 (UniProt P11362)"
  assigned class: 0
- primary sequence: "NCFKYYMSDDI [ATRX_Y204]"
  target system: "FGFR1 (UniProt P11362)"
  assigned class: 1
- primary sequence: "EALSLYTKLMN [STAM_Y371]"
  target system: "FGFR1 (UniProt P11362)"
  assigned class: 0
- primary sequence: "DHAGEYGAEAL [HBA1_Y25_A20D]"
  target system: "FGFR1 (UniProt P11362)"
  assigned class: 0
- primary sequence: "GHNNVYISEHV [GRIN2A_Y1423_D1421N]"
  target system: "FGFR1 (UniProt P11362)"
  assigned class: 0
- primary sequence: "RQNQEYEILLD [KRT39_Y379]"
  target system: "FGFR1 (UniProt P11362)"
  assigned class: 0
- primary sequence: "SPDMLYQFLKQ [RPAP3_Y567_YF]"
  target system: "FGFR1 (UniProt P11362)"
  assigned class: 1
- primary sequence: "AEPTGYSAELS [EZR_Y499]"
  target system: "FGFR1 (UniProt P11362)"
  assigned class: 0
- primary sequence: "SVGGCYEQLFV [MC4R_Y41_D37V]"
  target system: "FGFR1 (UniProt P11362)"
  assigned class: 1
- primary sequence: "MCDSHYLESRF [CLK1_Y56_S61F]"
  target system: "FGFR1 (UniProt P11362)"
  assigned class: 0
- primary sequence: "AKKMKYFEGVS [PRKDC_Y682_I680M]"
  target system: "FGFR1 (UniProt P11362)"
  assigned class: 0
- primary sequence: "SVETPYVSVTF [NDRG2_Y47_G48V]"
  target system: "FGFR1 (UniProt P11362)"
  assigned class: 1
- primary sequence: "QMRLKYSQSDL [SMC1A_Y714]"
  target system: "FGFR1 (UniProt P11362)"
  assigned class: 0
- primary sequence: "IKELTYQTEED [MYH7_Y1852]"
  target system: "FGFR1 (UniProt P11362)"
  assigned class: 0
- primary sequence: "SVVVPYEPLEV [TP53_Y220_P223L]"
  target system: "FGFR1 (UniProt P11362)"
  assigned class: 0
- primary sequence: "ALWYIYSHTRS [ENG_Y614]"
  target system: "FGFR1 (UniProt P11362)"
  assigned class: 0
- primary sequence: "CTTIYYNYMCN [TP53_Y234_H233Y]"
  target system: "FGFR1 (UniProt P11362)"
  assigned class: 1
- primary sequence: "RGNMYYENSYA [EGFR_Y113]"
  target system: "FGFR1 (UniProt P11362)"
  assigned class: 1
- primary sequence: "NACGLYHKMNG [GATA5_Y216]"
  target system: "FGFR1 (UniProt P11362)"
  assigned class: 0
- primary sequence: "RRGTGYTLSLP [MAGEC3_Y152]"
  target system: "FGFR1 (UniProt P11362)"
  assigned class: 1
- primary sequence: "RDHYGYRQSVT [CD55_Y245]"
  target system: "FGFR1 (UniProt P11362)"
  assigned class: 1
- primary sequence: "HYPDVYAWEQL [ALX3_Y181_R183W]"
  target system: "FGFR1 (UniProt P11362)"
  assigned class: 1
- primary sequence: "RAFRHYLLKQK [SCN2A_Y1919_R1918H_YF]"
  target system: "FGFR1 (UniProt P11362)"
  assigned class: 1
- primary sequence: "ATQDNYVLEVR [PTPRZ1_Y2179_D2178N]"
  target system: "FGFR1 (UniProt P11362)"
  assigned class: 0
- primary sequence: "QNTGDYFDLFG [PTPN11_Y62_YF]"
  target system: "FGFR1 (UniProt P11362)"
  assigned class: 1
- primary sequence: "PFQGAYLEINK [MYO1B_Y967]"
  target system: "FGFR1 (UniProt P11362)"
  assigned class: 0
- primary sequence: "VCDALYPPGPP"
  target system: "FGFR1 (UniProt P11362)"
  assigned class: 0
- primary sequence: "HPWPQYTTRAP [FNDC1_Y1281]"
  target system: "FGFR1 (UniProt P11362)"
  assigned class: 0
- primary sequence: "EQKKYYNATKK [SCN5A_Y1495_M1498T]"
  target system: "FGFR1 (UniProt P11362)"
  assigned class: 0
- primary sequence: "LGSWTYTKTVS [ROS1_Y144]"
  target system: "FGFR1 (UniProt P11362)"
  assigned class: 1
- primary sequence: "FFHCTYKQRMI [CLEC12A_Y242_K244Q_YF]"
  target system: "FGFR1 (UniProt P11362)"
  assigned class: 0
- primary sequence: "AEPHTYEEPGR [EPHA8_Y616]"
  target system: "FGFR1 (UniProt P11362)"
  assigned class: 0
- primary sequence: "RSDSTYRMSAT [NHS_Y1532_S1531T]"
  target system: "FGFR1 (UniProt P11362)"
  assigned class: 0
- primary sequence: "VASMFYTLVIP [OR8K3_Y277_I275M]"
  target system: "FGFR1 (UniProt P11362)"
  assigned class: 1
- primary sequence: "TTPGPYRSIFF [MPG_Y71_YF]"
  target system: "FGFR1 (UniProt P11362)"
  assigned class: 0
- primary sequence: "WDLSEYSFKDP [ITGA3_Y237_YF]"
  target system: "FGFR1 (UniProt P11362)"
  assigned class: 0
- primary sequence: "KDHPDYKFQRR [SOX10_Y171_P175R_YF]"
  target system: "FGFR1 (UniProt P11362)"
  assigned class: 0
- primary sequence: "GPGLVYGVANK [FLNB_Y1833]"
  target system: "FGFR1 (UniProt P11362)"
  assigned class: 0
- primary sequence: "EVGHVYLFLQP [ITGA2B_Y360_R358H]"
  target system: "FGFR1 (UniProt P11362)"
  assigned class: 0
- primary sequence: "FQNGMYGLHQD [SGSH_Y89_H84Y_YF]"
  target system: "FGFR1 (UniProt P11362)"
  assigned class: 0
- primary sequence: "ANNPLYKEATS [ITGB3_Y773]"
  target system: "FGFR1 (UniProt P11362)"
  assigned class: 0
- primary sequence: "ILTFKYLQKPM [KIT_Y547_YF]"
  target system: "FGFR1 (UniProt P11362)"
  assigned class: 0
- primary sequence: "MGRVNYGAYIN [GLB1_Y485]"
  target system: "FGFR1 (UniProt P11362)"
  assigned class: 0
- primary sequence: "FKGKNYKPLDL [RPL35_Y78_K77N_YF]"
  target system: "FGFR1 (UniProt P11362)"
  assigned class: 0
- primary sequence: "AGQEGYDRLRP [RAC1_Y64_D63G]"
  target system: "FGFR1 (UniProt P11362)"
  assigned class: 0
- primary sequence: "KNKKDYYDMYE [SLC26A3_Y526]"
  target system: "FGFR1 (UniProt P11362)"
  assigned class: 1
- primary sequence: "LKGQVYILGGE [ASS1_Y359_R363G]"
  target system: "FGFR1 (UniProt P11362)"
  assigned class: 1
- primary sequence: "EVESPYEVRDF [GIGYF2_Y1168_H1171R_YF]"
  target system: "FGFR1 (UniProt P11362)"
  assigned class: 0
- primary sequence: "GDFFCYLAEVA [YWHAG_Y133_R132C_YF]"
  target system: "FGFR1 (UniProt P11362)"
  assigned class: 0
